meta.source: PubChem BioAssay AID2823

targetOfAssay: RanGTP-importin-beta complex (human Ran / KPNB1)
testMethodNotes: disruptors of RanGTP/KPNB1 binding – biochemical, FRET, CFP/YFP, cell-free homogeneous, confirmation (AID 2823)
particulars: CFP-Ran/YFP-importin-beta FRET ratio
The source made the active and inactive calls. The rule behind the calls is not given here.
Assign a class; possible classes are True = active, False = inactive

The following compounds have reported results that may help.
[
  {
    "compound": "CCc1ccc(-c2nc(CSCC(=O)N3CCN(c4ccccn4)CC3)c(C)o2)cc1",
    "category": "False"
  },
  {
    "compound": "O=C(CSCC(=O)NC1CC1)Nc1ccccc1",
    "category": "False"
  },
  {
    "compound": "Cc1ccc(C(=O)NNC2CC(=O)N(c3ccc4c(c3)OCCO4)C2=O)cc1 (stereo unspecified)",
    "category": "False"
  }
]

Kindly provide the recorded test outcome for the following compound: CCOC(=O)c1c(NC(=O)CN2CCCc3ccccc32)sc(C(C)=O)c1C
False

Kindly provide the recorded test outcome for the following compound: Cc1cnc(C(=O)Nc2ccc(S(=O)(=O)N(C(C)C)C(C)C)cc2)cn1
False

Kindly provide the recorded test outcome for the following compound: COc1ccc(/C=C2\SC(=S)N(CC(=O)OCC(=O)Nc3ccc(C)cc3Cl)C2=O)cc1
False

Kindly provide the recorded test outcome for the following compound: COC(=O)c1ccc2c(=O)n(CCN3CCOCC3)c(SCC(=O)C(C)(C)C)nc2c1
False

Kindly provide the recorded test outcome for the following compound: COc1cccc(C(=O)/C=C/Nc2cc(C)ccc2O)c1
False

Kindly provide the recorded test outcome for the following compound: CCCC1C(C#N)=C(N)Oc2cc(C)n(C)c(=O)c21 (stereo unspecified)
False

Kindly provide the recorded test outcome for the following compound: COc1ccccc1S(=O)Cc1ccc(C(=O)O)o1 (stereo unspecified)
False

Kindly provide the recorded test outcome for the following compound: CCCn1c(O)c(C=Nc2ccccc2)sc1=S
True

Kindly provide the recorded test outcome for the following compound: O=C(Nc1nc2ccc(S(=O)(=O)N3CCCCC3)cc2s1)c1cccnc1
False

Kindly provide the recorded test outcome for the following compound: COC(=O)Cc1c(C)c2cc(Cl)c(OC(=O)c3ccco3)cc2oc1=O
True

Kindly provide the recorded test outcome for the following compound: COC(=O)C1=C(C)NC2=C(C(=O)CCC2)C1c1cccc(C)n1 (stereo unspecified)
True

Kindly provide the recorded test outcome for the following compound: COc1ccc(C(=O)N/N=C/c2c(CO)cnc(C)c2O)cc1
True

Kindly provide the recorded test outcome for the following compound: Cc1oc2cc(O)ccc2c(=O)c1-c1nncn1-c1ccccc1
True

Kindly provide the recorded test outcome for the following compound: Nc1nc2nc(-c3ccc(OCc4ccccc4)cc3)cc(C(F)(F)F)n2n1
True

Kindly provide the recorded test outcome for the following compound: CNS(=O)(=O)c1cc(OC)c(OC)cc1CC(=O)OC
False
